Target: ERK2 (Rattus norvegicus (Rat), UniProt P63086)
Sequence (P63086 whole entry): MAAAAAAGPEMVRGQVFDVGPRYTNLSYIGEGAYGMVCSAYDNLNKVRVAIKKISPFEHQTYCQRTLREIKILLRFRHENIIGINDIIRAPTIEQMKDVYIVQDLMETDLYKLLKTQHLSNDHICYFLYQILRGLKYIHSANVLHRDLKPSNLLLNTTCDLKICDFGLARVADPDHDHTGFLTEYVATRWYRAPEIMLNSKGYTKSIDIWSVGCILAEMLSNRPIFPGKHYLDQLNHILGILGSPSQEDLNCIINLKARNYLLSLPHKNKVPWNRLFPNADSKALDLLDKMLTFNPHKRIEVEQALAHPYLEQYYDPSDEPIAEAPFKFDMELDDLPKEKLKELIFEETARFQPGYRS
reported.endpoint: Ki (µM)

{"compound": "CN1CCN(CC(=O)N(C)c2ccc(N/C(=C3\\C(=O)Nc4ccc(C(=O)O)cc43)c3ccccc3)cc2)CC1 [Compound 21]", "uom": "µM", "readout.value": 19}

###

Biological target: MELK (Homo sapiens (Human), UniProt Q14680)
Sequence (Q14680 1-340): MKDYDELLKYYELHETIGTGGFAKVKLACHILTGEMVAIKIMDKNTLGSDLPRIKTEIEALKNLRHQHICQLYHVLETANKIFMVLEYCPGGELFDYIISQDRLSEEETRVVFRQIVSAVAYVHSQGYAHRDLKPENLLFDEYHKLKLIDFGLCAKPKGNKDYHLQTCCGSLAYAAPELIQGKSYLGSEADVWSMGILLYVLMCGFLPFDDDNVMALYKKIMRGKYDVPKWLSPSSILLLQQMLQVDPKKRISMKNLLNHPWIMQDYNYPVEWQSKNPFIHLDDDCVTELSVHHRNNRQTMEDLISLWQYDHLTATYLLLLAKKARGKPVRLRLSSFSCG
Experiment: MELK p81-based kinase assay, dose-response (IC50/Ki)
Type: biochemical
Conditions: Ki calculated using Equation 4, [ATP] = 40 μM, KM app (ATP) = 6 μM; read-out: Ki ± SE
reported.endpoint: Ki (nM)

{"molecule": "CN(C)CCCNC(=O)c1ccc2c(c1)NC(=O)/C2=C(\\Nc1ccc(N(C)C(=O)CN2CCN(C)CC2)cc1)c1ccccc1 [Compound 22]", "reported.endpoint": "Ki", "readout.value": 358}
{"molecule": "CN1CCN(CC(=O)N(C)c2ccc(N/C(=C3\\C(=O)Nc4cc(C(=O)O)ccc43)c3ccccc3)cc2)CC1 [Compound 20]", "reported.endpoint": "Ki", "readout.value": 149}
{"molecule": "CN1CCN(CC(=O)N(C)c2ccc(N/C(=C3\\C(=O)Nc4ccccc43)c3ccccc3)cc2)CC1 [Compound 16]", "reported.endpoint": "Ki", "readout.value": 0.47}
{"molecule": "CN1CCN(CC(=O)N(C)c2ccc(N/C(=C3\\C(=O)Nc4ccc(C(=O)O)cc43)c3ccccc3)cc2)CC1 [Compound 21]", "reported.endpoint": "Ki", "readout.value": 0.68}
{"molecule": "CNC(=O)c1ccc2c(c1)/C(=C(/Nc1ccc(N(C)C(=O)CN3CCN(C)CC3)cc1)c1ccccc1)C(=O)N2 [Compound 24]", "reported.endpoint": "Ki", "readout.value": 2.3}
{"molecule": "CC(=O)c1ccc2c(c1)/C(=C(/Nc1ccc(N(C)C(=O)CN3CCN(C)CC3)cc1)c1ccccc1)C(=O)N2 [Compound 18]", "reported.endpoint": "Ki", "readout.value": 46}

###

Molecular target: MELK (Homo sapiens (Human), UniProt Q14680)
Assay: MELK p81-based kinase assay, dose-response (IC50/Ki)
Type: biochemical
Details: fragment and intermediate potency (synthetic intermediates); read-out: Ki ± SD
Reported Ki values for a set of compounds
reported.endpoint: Ki

{"compound": "CN1CCN(CC(=O)N(C)c2ccc(N)cc2)CC1 [Compound 14]", "readout.value": "> 5 µM"}
{"compound": "CCO/C(=C1\\C(=O)N(C(C)=O)c2ccc(C(=O)OC)cc21)c1ccccc1 [Compound 8]", "readout.value": "> 5 µM"}
{"compound": "CCO/C(=C1\\C(=O)N(C(C)=O)c2cc(C(=O)OC)ccc21)c1ccccc1 [Compound 6]", "readout.value": "> 5 µM"}

###

Below are Ki values measured for CHK1 (Homo sapiens (Human), UniProt O14757).

{"smiles.record": "COC(=O)c1ccc2c(c1)/C(=C(/Nc1ccc(N(C)C(=O)CN3CCN(C)CC3)cc1)c1ccccc1)C(=O)N2", "Ki [nM]": 7}
{"smiles.record": "CN1CCN(CC(=O)N(C)c2ccc(N/C(=C3\\C(=O)Nc4ccc(C(=O)O)cc43)c3ccccc3)cc2)CC1", "Ki [nM]": 81}

###

Molecular target: MELK (Homo sapiens (Human), UniProt Q14680)
Experiment: MELK p81-based kinase assay, dose-response (IC50/Ki)
Format: biochemical
Details: cross-inhibition of MELK by known kinase inhibitors; 40 μM ATP; read-out: IC50 ± SE
Reported IC50 values for a set of compounds

{"compound": "CCN(CC)CCNC(=O)c1c(C)[nH]c(/C=C2\\C(=O)Nc3ccc(Cl)cc32)c1C [Compound 572660, reference compound]", "experimental.target": "MELK (Homo sapiens (Human), UniProt Q14680)", "uom": "nM", "IC50": 760}
{"compound": "c1cc(OCCN2CCCCC2)cc(-c2n[nH]c3ccc(-c4nc[nH]n4)cc23)c1 [CC401, reference compound]", "experimental.target": "MELK (Homo sapiens (Human), UniProt Q14680)", "uom": "nM", "IC50": 340}
{"compound": "Cc1ccc([N+](=O)[O-])cc1S(=O)(=O)N(C)/N=C/c1cnc2ccc(Br)cn12 [PIK75, reference compound]", "experimental.target": "MELK (Homo sapiens (Human), UniProt Q14680)", "uom": "nM", "IC50": 400}
{"compound": "CCS(=O)(=O)Nc1ccc2c(c1)/C(=C(/Nc1ccc(CN3CCCCC3)cc1)c1ccccc1)C(=O)N2 [Hesperadin, reference compound]", "experimental.target": "MELK (Homo sapiens (Human), UniProt Q14680)", "uom": "nM", "IC50": 225}
{"compound": "N=C(N)NCCNS(=O)(=O)c1cccc2cnccc12 [HA-1004, reference compound]", "experimental.target": "MELK (Homo sapiens (Human), UniProt Q14680)", "uom": "nM", "IC50": 440}
{"compound": "O=C1Nc2ccc3scnc3c2/C1=C/c1cnc[nH]1 [Compound 527450, reference compound]", "experimental.target": "MELK (Homo sapiens (Human), UniProt Q14680)", "uom": "nM", "IC50": 720}
{"compound": "NC(=O)Nc1cc(-c2cccc(F)c2)sc1C(=O)N[C@@H]1CCCNC1 [AZD776, reference compound]", "experimental.target": "MELK (Homo sapiens (Human), UniProt Q14680)", "uom": "nM", "IC50": 900}
{"compound": "CC(C)(C)c1nc2c3ccc(F)cc3c3c(=O)[nH]ccc3c2[nH]1 [Compound 420099, reference compound]", "experimental.target": "MELK (Homo sapiens (Human), UniProt Q14680)", "uom": "nM", "IC50": 330}
